Numbers sourced from paper PMC9001735.

tested on: AcrIF24ΔMD (Pseudomonas aeruginosa prophage); assay: EMSA; conditions: EMSA: 20 mM HEPES pH 7.5, 150 mM NaCl, 5% glycerol, 37 C 30 min, 1 uM DNA (20 nM for Kd), MST: 20 mM HEPES pH 7.5, 150 mM KCl
pKd: −log10 of the molar value.

residueSequence	pKd
GCATAGCTCGATCCGAGCTAGTA (double strand) [IR23-24 WT]	7.31

###

system: AcrIF24 (Pseudomonas aeruginosa prophage); assay: EMSA; settings: EMSA: 20 mM HEPES pH 7.5, 150 mM NaCl, 5% glycerol, 37 C 30 min, 1 uM DNA (20 nM for Kd), MST: 20 mM HEPES pH 7.5, 150 mM KCl

residueSequence	unitSpec	Kd
GAGCGACTACGACATGAGCGCGCAGCTAAGACCGCCCGTAGATGCGTCGAGCGT (double strand) [dsDNANS 54 bp]	µM	3.46
GCATAGCTCGATCCGAGCTAGTA (double strand) [IR23-24 WT]	µM	0.0202
